target: full-length human RORγt (Homo sapiens (Human), UniProt P51449); assay: RORγt (full-length human) reporter assay, conditions A or B; settings: HEK293T cells; read-out: RORγt (FL) Reporter Assay A or B, IC50
Sequence (P51449 other isoform, or with tags, fused parts or gaps): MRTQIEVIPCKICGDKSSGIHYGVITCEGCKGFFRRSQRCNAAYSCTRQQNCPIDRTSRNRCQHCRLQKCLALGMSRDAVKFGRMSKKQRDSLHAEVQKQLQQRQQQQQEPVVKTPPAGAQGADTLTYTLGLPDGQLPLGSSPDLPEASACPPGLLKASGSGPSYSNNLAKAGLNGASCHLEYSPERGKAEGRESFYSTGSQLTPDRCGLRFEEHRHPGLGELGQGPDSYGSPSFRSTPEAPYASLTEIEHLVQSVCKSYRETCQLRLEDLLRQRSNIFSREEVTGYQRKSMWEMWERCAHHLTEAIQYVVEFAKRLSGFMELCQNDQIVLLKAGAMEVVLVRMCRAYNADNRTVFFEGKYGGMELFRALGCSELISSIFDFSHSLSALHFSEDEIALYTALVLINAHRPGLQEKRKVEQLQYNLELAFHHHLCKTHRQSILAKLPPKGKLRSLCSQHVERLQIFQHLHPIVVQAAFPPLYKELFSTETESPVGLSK
pIC50: −log10 of the molar value.
Here the recorded pIC50 is given for each entry.
Endpoint Name: pIC50

Molecule: CCc1nc(C(=O)NC[C@]2(O)CC[C@@H](S(C)(=O)=O)CC2)c(Cl)n1-c1ncc(C[C@H](C)C(F)(F)F)cc1OC(F)F (single isomer, unassigned)
Endpoint Name: pIC50
Value Measured: 6.80
--
Molecule: CCc1nc(C(=O)NC[C@H]2CC[C@H](S(C)(=O)=O)CC2)c(C#N)n1-c1ccc(CC(C)C(F)(F)F)cc1OC (stereo partly drawn)
Endpoint Name: pIC50
Value Measured: 7.80
--
Molecule: CCc1nc(C(=O)NC[C@]2(O)CC[C@@H](S(C)(=O)=O)CC2)cn1-c1c(F)cc(CC(C)C)cc1F
Endpoint Name: pIC50
Value Measured: 5.92
